# target.under.test: CYP2D6 (Homo sapiens, UniProt P10635)
# Sequence (P10635 whole entry): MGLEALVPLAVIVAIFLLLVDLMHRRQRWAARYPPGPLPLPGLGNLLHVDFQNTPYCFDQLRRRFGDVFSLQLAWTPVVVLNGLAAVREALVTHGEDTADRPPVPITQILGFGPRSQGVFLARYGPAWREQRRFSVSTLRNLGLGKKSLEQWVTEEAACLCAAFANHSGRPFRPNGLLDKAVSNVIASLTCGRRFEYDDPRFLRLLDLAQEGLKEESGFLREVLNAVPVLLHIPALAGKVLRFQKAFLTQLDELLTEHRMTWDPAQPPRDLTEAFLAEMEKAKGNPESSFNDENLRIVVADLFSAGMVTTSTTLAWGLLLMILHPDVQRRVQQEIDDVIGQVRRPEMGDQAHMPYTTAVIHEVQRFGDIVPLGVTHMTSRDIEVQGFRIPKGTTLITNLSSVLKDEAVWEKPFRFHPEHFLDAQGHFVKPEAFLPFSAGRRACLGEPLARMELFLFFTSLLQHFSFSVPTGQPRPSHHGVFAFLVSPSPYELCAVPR
# test.details: in vitro
# setup.conditions: both, pH 7.4
readout.name: inhibition at 10 µM (%)

INSERT INTO results (compound, readout_name, value_unit, numeric_readout) VALUES
  ('OC1(c2ccc(Cl)cc2)c2ccccc2C2=NCCN21 (stereo not shown) [Compound A, reference compound]', 'inhibition at 10 µM', '%', 70.8);

====

# target.under.test: CYP2C19 (Homo sapiens, UniProt P33261)
# Sequence (P33261 whole entry): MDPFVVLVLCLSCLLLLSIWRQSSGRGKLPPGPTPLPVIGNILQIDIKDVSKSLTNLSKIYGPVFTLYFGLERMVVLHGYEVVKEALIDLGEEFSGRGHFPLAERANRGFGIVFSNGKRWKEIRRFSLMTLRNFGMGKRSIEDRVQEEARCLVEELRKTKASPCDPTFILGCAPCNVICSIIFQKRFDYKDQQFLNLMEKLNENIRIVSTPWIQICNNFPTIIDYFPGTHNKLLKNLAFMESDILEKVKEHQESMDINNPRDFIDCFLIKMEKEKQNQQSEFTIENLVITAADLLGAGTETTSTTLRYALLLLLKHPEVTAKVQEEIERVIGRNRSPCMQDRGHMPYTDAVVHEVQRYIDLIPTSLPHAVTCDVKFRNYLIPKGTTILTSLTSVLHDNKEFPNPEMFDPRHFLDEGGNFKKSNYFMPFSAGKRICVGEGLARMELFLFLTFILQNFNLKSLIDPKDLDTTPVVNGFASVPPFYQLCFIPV
# test.details: in vitro
# setup.conditions: both, pH 7.4
readout.name: inhibition at 50 µM (%)

INSERT INTO measurements (compound, readout_name, value_unit, numeric_readout) VALUES
  ('COc1ccc2[nH]c([S+]([O-])Cc3ncc(C)c(OC)c3C)nc2c1 (stereo not shown) [Omeprazole]', 'inhibition at 50 µM', '%', 89.9);

====

# test.details: in vitro
# setup.conditions: beagle, dog, plasma
readout.name: half-life at 2 μM (min)

INSERT INTO results (molecule, readout_name, value_unit, numeric_readout) VALUES
  ('CC(=O)Oc1ccc(C(c2ccc(OC(C)=O)cc2)c2ccccn2)cc1 [Bisacodyl, reference compound]', 'half-life at 2 μM', 'min', 3.6);

====

# target.under.test: MATE1 (Homo sapiens, UniProt Q96FL8)
# Sequence (Q96FL8 1-570): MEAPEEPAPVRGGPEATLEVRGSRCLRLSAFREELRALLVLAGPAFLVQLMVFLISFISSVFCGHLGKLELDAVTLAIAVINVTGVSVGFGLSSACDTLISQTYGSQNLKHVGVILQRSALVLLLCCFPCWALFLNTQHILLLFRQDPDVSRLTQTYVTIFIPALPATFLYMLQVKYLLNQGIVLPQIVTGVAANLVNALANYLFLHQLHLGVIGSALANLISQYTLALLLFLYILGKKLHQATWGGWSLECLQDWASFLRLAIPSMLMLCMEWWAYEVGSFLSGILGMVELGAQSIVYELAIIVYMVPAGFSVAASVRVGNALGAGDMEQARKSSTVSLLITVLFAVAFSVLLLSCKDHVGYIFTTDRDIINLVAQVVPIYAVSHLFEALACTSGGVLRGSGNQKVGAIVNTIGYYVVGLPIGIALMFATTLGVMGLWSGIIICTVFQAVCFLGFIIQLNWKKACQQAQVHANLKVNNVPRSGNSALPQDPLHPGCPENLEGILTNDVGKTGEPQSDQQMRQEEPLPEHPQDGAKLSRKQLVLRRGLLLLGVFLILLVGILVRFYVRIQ
readout.name: inhibition

INSERT INTO measurements (smiles_repr, readout_name, result) VALUES
  ('CCc1nc(N)nc(N)c1-c1ccc(Cl)cc1', 'inhibition', '100%');

====

# target.under.test: CYP2B6 (Homo sapiens, UniProt P20813)
# Sequence (P20813 1-491): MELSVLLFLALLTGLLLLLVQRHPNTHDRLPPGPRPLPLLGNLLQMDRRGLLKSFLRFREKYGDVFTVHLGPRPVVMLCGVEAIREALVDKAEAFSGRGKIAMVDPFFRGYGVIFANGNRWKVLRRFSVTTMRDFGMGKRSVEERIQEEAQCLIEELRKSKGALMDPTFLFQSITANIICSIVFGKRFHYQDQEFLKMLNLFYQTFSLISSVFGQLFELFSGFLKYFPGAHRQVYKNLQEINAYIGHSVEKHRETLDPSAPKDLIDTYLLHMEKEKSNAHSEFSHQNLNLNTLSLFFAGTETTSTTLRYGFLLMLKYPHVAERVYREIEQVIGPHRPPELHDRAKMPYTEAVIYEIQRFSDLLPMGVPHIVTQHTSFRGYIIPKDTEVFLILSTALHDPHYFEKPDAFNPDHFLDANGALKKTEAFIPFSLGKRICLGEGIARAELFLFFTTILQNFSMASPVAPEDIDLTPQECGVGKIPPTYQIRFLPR
# test.details: in vitro
# setup.conditions: both, pH 7.4
readout.name: inhibition at 10 µM (%)

INSERT INTO assay_data (molecule, value_unit, numeric_readout) VALUES
  ('OC1(c2ccc(Cl)cc2)c2ccccc2C2=NCCN21 (stereo not shown) [Compound A, reference compound]', '%', 62);

====

# test.details: Plasma and brain concentrations after 3 mg/kg i.p. in male CD-1 mice
# setup.conditions: brain (expressed as nmol/kg = nmol/L per footnote); 3 mg/kg i.p. Compound I-19, male CD-1 mice
readout.name: Cmax (µM)

INSERT INTO results (compound, numeric_readout) VALUES
  ('Clc1ccc(C2(OCC3OCCO3)c3ccccc3C3=NCCN32)cc1 (stereo not shown)', 1.18);

====

# target.under.test: MATE1 (Homo sapiens)
# test.details: Uptake transporter inhibition assay, MATE1 (metformin)
# setup.conditions: human, Relative inhibition, 3.00 μM nominal
readout.name: inhibition at 3 μM (%)

INSERT INTO results (compound, value_unit, numeric_readout) VALUES
  ('OC1(c2ccc(Cl)cc2)c2ccccc2C2=NCCN21 (stereo not shown) [Compound A, reference compound]', '%', 45);

====

# target.under.test: UniProt:P33261
# test.details: in vitro
# setup.conditions: both, pH 7.4
readout.name: inhibition at 10 µM (%)

INSERT INTO measurements (molecule, target_under_test, numeric_readout) VALUES
  ('OC1(c2ccc(Cl)cc2)c2ccccc2C2=NCCN21 (stereo not shown) [Compound A, reference compound]', 'UniProt:P33261', 16.5);

====

# target.under.test: MATE1 (Homo sapiens, UniProt Q96FL8)
# Sequence (Q96FL8 1-570): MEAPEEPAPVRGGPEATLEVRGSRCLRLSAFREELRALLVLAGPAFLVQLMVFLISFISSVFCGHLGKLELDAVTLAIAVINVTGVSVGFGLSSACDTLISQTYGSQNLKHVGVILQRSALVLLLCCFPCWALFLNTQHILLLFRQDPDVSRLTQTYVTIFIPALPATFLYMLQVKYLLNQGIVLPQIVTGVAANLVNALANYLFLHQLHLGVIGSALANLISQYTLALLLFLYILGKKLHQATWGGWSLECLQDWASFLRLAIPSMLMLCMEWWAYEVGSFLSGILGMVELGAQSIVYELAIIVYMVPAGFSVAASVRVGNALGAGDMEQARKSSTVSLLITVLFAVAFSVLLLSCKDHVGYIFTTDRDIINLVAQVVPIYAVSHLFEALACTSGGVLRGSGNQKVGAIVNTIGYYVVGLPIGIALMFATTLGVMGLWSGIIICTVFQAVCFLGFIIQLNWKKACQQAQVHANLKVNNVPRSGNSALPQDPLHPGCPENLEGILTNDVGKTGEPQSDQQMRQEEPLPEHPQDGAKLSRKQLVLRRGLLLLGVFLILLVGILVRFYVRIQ
# test.details: in vitro
readout.name: inhibition at 5 µM (%)

INSERT INTO results (molecule, value_unit, numeric_readout) VALUES
  ('CCc1nc(N)nc(N)c1-c1ccc(Cl)cc1 [Pyrimethamine]', '%', 102);

====

# target.under.test: BCRP (Homo sapiens)
# Sequence (Q9UNQ0 1-655): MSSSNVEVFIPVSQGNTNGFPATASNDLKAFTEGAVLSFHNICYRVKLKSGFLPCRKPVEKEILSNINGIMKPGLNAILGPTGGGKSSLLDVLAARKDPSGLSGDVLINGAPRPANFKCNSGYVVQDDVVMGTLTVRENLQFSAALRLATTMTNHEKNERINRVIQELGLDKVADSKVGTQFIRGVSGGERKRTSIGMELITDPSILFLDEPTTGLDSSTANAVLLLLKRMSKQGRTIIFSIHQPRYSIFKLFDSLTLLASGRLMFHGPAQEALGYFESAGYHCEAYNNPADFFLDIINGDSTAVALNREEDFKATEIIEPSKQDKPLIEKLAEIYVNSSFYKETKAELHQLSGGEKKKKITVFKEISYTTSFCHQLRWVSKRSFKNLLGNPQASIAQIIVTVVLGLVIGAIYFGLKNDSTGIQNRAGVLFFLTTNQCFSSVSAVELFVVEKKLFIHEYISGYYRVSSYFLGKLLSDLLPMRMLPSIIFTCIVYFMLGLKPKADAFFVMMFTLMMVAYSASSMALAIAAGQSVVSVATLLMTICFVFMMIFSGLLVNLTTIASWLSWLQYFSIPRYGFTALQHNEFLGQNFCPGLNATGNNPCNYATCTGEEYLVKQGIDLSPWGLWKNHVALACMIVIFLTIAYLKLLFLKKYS
# test.details: Vesicular transport inhibition assay, BCRP (estrone-3-sulfate)
# setup.conditions: human
readout.name: inhibition at 5 μM

INSERT INTO assay_data (molecule, readout_name, result) VALUES
  ('OC1(c2ccc(Cl)cc2)c2ccccc2C2=NCCN21 (stereo not shown) [Compound A, reference compound]', 'inhibition at 5 μM', '0%');

====

# target.under.test: CYP2D6 (Homo sapiens)
# setup.conditions: microsomes
readout.name: IC50 (µM)

INSERT INTO results (molecule, readout_name, numeric_readout) VALUES
  ('Clc1ccc(C2(OCC3OCCO3)c3ccccc3C3=NCCN32)cc1 (stereo not shown) [Compound I-19]', 'IC50', 8.7);

Reference source: patent US20250108038A1
